Biological target: Human sputum neutrophil elastase (Homo sapiens, UniProt P08246)
Sequence (P08246 30-247 limits assumed): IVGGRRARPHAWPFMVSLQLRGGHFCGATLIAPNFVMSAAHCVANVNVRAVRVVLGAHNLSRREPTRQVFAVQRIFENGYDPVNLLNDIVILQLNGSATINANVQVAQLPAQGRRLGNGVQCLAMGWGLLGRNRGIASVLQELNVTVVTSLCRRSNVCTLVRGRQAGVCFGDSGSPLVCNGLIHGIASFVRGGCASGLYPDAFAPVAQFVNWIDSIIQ
Test: Inhibitor IC50 against human neutrophil elastase (fluorogenic MeOSuc-AAPV-AMC substrate)
Conditions: 20 min preincubation, read-out: HNE IC50
measured.endpoint: IC50

* Cc1cccc2nc(-c3cccnc3Oc3ccc4c(c3)OCO4)oc(=O)c12 | 16 to 60 nM
* CCc1cc(OC)cc2nc(-c3cccnc3N3CC[C@H](N(CCO)CCO)C3)oc(=O)c12 | < 15 nM
* CCc1cc(OC)cc2nc(-c3cccnc3N3CCC(S(=O)(=O)O)CC3)oc(=O)c12 | 16 to 60 nM
* CCc1cccc2nc(-c3cccnc3-n3cc[n+](C)c3)oc(=O)c12 | 16 to 60 nM
* Cc1cccc2nc(-c3cccnc3Cl)oc(=O)c12 | 16 to 60 nM
* CCc1cc(OC)cc2nc(-c3cccnc3N3CCN(CCNC(=O)OC(C)(C)C)CC3)oc(=O)c12 | 16 to 60 nM
* COc1cccc2nc(-c3cccnc3N3CCN(C)C(C)C3)oc(=O)c12 (stereo not shown) | > 150 nM
* CCCc1cc(OC)cc2nc(-c3cccnc3N3CC[C@H](N(C)C)C3)oc(=O)c12 | 16 to 60 nM
* CCc1cc(OC)cc2nc(-c3cccnc3N3CCC(CCN4CCCC4)CC3)oc(=O)c12 | < 15 nM
* CCc1cc(OC)cc2nc(-c3cccnc3-n3ccnc3)oc(=O)c12 | < 15 nM
* Cc1cccc2nc(-c3cccnc3OCCOCCOCCOCCOc3ncccc3C(=O)O)oc(=O)c12 | 61 to 150 nM
* CCc1cccc2nc(-c3cccnc3N(C)CCN(C)C)oc(=O)c12 | < 15 nM
* CCCc1cc(OC)cc2nc(-c3cccnc3N3CCN(CCOC)CC3)oc(=O)c12 | 61 to 150 nM
